Target: uPAR (Homo sapiens, UniProt Q03405)
Construct: Recombinant human uPAR^1–283 was expressed; made in house; host or cells: Drosophila melanogaster S2 cells
Sequence (Q03405 23-305): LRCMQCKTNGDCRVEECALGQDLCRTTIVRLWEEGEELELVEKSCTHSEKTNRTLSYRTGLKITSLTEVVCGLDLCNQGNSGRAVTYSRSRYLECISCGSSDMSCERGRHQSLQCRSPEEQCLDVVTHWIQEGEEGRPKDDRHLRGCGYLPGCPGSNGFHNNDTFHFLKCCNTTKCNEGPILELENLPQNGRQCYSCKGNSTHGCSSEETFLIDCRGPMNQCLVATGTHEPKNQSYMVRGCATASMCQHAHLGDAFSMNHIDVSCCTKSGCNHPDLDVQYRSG
Assay: SPR real-time binding kinetics, peptides in solution and immobilised uPAR
Conditions: single cycle SPR, immobilised uPAR, 20 °C, 1:1 model
Positions of bridges follow the written chain, without caps; N, C: chain ends. Non-standard residues stand in square brackets, D forms with d. Residues, ends and D or L forms follow the SMILES beside them. *: point of attachment. DOTA = O=C(O)CN1CCN(CC(=O)O)CCN(CC(=O)*)CCN(CC(=O)O)CC1; Cha = N[C@@H](CC1CCCCC1)C(=O)O
metric-name: Kd (nM)
// units = nM; emit number, no label

Return reported Kd; argument: CC(C)C[C@H](NC(=O)[C@H](Cc1ccc(O)cc1)NC(=O)[C@@H](CCCNC(=N)N)NC(=O)[C@@H](CO)NC(=O)[C@H](Cc1ccccc1)NC(=O)[C@H](CC1CCCCC1)NC(=O)[C@H](CC(=O)O)NC(=O)CNC(=O)CNC(=O)[C@@H](CO)NC(=O)CNC(=O)[C@H](CCC(=O)O)NC(=O)[C@H](CCC(=O)O)NC(=O)CN1CCN(CC(=O)O)CCN(CC(=O)O)CCN(CC(=O)O)CC1)C(=O)N[C@@H](Cc1c[nH]c2ccccc12)C(=O)N[C@@H](CO)C(N)=O [10b] ({DOTA}-EEG[dS]GGD[Cha]F[dS][dR]YLWS-NH2) 3.18

Query: Kd; subject: CC(C)C[C@H](NC(=O)[C@H](Cc1ccc(O)cc1)NC(=O)[C@@H](CCCNC(=N)N)NC(=O)[C@@H](CO)NC(=O)[C@H](Cc1ccccc1)NC(=O)[C@H](CC1CCCCC1)NC(=O)[C@@H](N)CC(=O)O)C(=O)N[C@@H](Cc1c[nH]c2ccccc12)C(=O)N[C@@H](CO)C(N)=O 0.53

Quick check: Kd of CC(C)C[C@@H]1NC(=O)[C@H](Cc2ccc(O)cc2)NC(=O)[C@H](NC(=O)[C@@H](CO)NC(=O)[C@H](Cc2ccccc2)NC(=O)[C@H](CC2CCCCC2)NC(=O)[C@@H](N)CC(=O)O)CSSC[C@@H](C(=O)O)NC(=O)[C@H](Cc2c[nH]c3ccccc23)NC1=O [compound 3] (H-D[Cha]F[dS][dC]YLWC-OH; disulfide 5-9; N-terminus assumed) ? 3.32

Look up Kd: CC(C)C[C@H](NC(=O)[C@H](Cc1ccc(O)cc1)NC(=O)[C@@H](CCCCN)NC(=O)[C@@H](CO)NC(=O)[C@H](Cc1ccccc1)NC(=O)[C@H](CC1CCCCC1)NC(=O)[C@@H](N)CC(=O)O)C(=O)N[C@@H](Cc1c[nH]c2ccccc12)C(=O)N[C@@H](CO)C(=O)O [compound 2] (H-D[Cha]F[dS][dK]YLWS-OH; N-terminus assumed) 50.2

Give the measured Kd of CC(C)C[C@@H]1NC(=O)[C@H](Cc2ccc(O)cc2)NC(=O)[C@H](NC(=O)[C@@H](CO)NC(=O)[C@H](Cc2ccccc2)NC(=O)[C@H](CC2CCCCC2)NC(=O)[C@H](CC(=O)O)NC(=O)CN2CCN(CC(=O)O)CCN(CC(=O)O)CCN(CC(=O)O)CC2)CSSC[C@@H](C(N)=O)NC(=O)[C@H](Cc2c[nH]c3ccccc23)NC1=O [9b] ({DOTA}-D[Cha]F[dS][dC]YLWC-NH2; disulfide 5-9) . 4.26

***
Param item = CC(C)C[C@H](NC(=O)[C@H](Cc1ccc(O)cc1)NC(=O)[C@@H](CCCNC(=N)N)NC(=O)[C@@H](CO)NC(=O)[C@H](Cc1ccccc1)NC(=O)[C@H](CC1CCCCC1)NC(=O)[C@@H](N)CC(=O)O)C(=O)N[C@@H](Cc1c[nH]c2ccccc12)C(=O)N[C@@H](CO)C(=O)O ; retrieve measured Kd. 2.52
